Assay: yeast display, Sf9 membrane polyspecificity reagent, FACS + sequencing; frameworks hold sequencing errors
observation type: polyreactivity (PSR sort gate)

>  <primary sequence>
QVQLVESGGGLVQAGGSLRLSCAASGRIFYINAMGWYRQAPGKERELVAAITEGGVSTYYADSVKGRFTISRDNAMNTVYLQMNSLKPEDTAVYYCNTTGGTDGIVIYEYWGQGTQVTVSS

>  <result>
low polyreactivity

$$$$
>  <primary sequence>
QVQLVESGGGLVQAGGSLRLSCAASGSTFVYYDMGWYRQAPGKERELVAAITGSVDSTYYADSVKGRFTISRDNAKNTVYLQMNSLKPEDTAVYYCAADTYSTYWGQGTQVTVSS

>  <result>
low polyreactivity

$$$$
>  <primary sequence>
QVQLVESGGGLVQAGGSLRLSCAASGRTLSVYAMGWYRQAPGKERELVAAITKSGGSTYYADSVKGRFTISRDNAKNTVYLQMNSLKPEDTAVYYCAAEGDWRGYALYNYWGQGTQVTVSS

>  <result>
low polyreactivity

$$$$
>  <primary sequence>
QVQLVESGGGLVQAGGSLRLSCAASGRTFRRNAMGWYRQAPGKERELVASITRNGGSTYYADSVKGRFTISRDNAKNTVYLQMNILKPEDTAVYYCYKTQPIDLYGYWGQGTQVTVSS

>  <result>
high polyreactivity

$$$$

# ---- query sequence ----
// query Return value of polyreactivity (PSR sort gate) for input QVQLVDSGGGLVQAGGSLRLSWAASGSTFVYNAMGWYRQAPGKEREFVAGISRSGGSTYYADSVKGRFTISRDNAKNTVYFQMNSLKPEDTAVYYCNARGGLPKYGYWGQGTQVTVSS , no commentary.
// result high polyreactivity
